# tested on: T1, SR
# T1 construct: also called LILRB4 SR-hIgG1-Fc; stalk region of LILRB4 as Fc fusion
# T1 sequence (fusion chain, as listed by the source): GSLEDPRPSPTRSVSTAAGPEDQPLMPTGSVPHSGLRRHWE
# test summary: matrix of binding to LILRB4 domain-Fc fusions (FIG. 47); ELISA per paragraph 433
readout label: binding result

anti-LILRB4 rabbit monoclonal antibody #128-3 (antibody, V domains shown) VH: EQSLEESGGDLVTPGASLTLTCKASGIDFSNHYYIYWVRQAPGKGLEWIGCIFSGDSASTYYASWAKGRFTISKSSSPTVTLQMTSLTAADTATYFCARGMSTNDWASDLWGPGTMVTVSS VL: ELVMTQTPASVSAAVGGTVTINCQASESINSIYLAWYQQKPGQRPKLLIYRASTLASGVSSRFKGSASGTGFTLTISDLECADAATYYCQQSYDWGDVENTFGGGTEVEIK | no binding
anti-LILRB4 rabbit monoclonal antibody #129 (antibody, V domains shown) VH: EQSVKESGGGLVKPGASLTLTCTASGFSFSSSYHMCWVRQAPGKGLEWIGCIATGYGSTYYASWAKGRFTISKTSSTTVTLQVPSLTAADTATCFCARGYYRYTSDSYGYFDLWGPGTLVTISS VL: ELVLTQTASPVSAAVGGTVTVNCQASQSISSGYLSWYQQKPGQPPKLLIYYASRLASGVPSRFSGSGSGTEYTLTISGVQCDDAATYYCLYVSYDGTTTDNAFGGGTEVEIK | no binding
anti-LILRB4 rabbit monoclonal antibody #139 (antibody, V domains shown) VH: EQSLEESGGRLVTPGTPLTLTCTVSGFSLNSYAMAWVRQAPGKGLEWIGIIGLSTMTYYASWVNGRFTISKTSTTVDLKMTSLTTEDTATYFCVRNDVYWAFNLWGQGTLVTVSS VL: ELDLTQTPSSVSAGVGGTVSISCQSSESVVNNHALSWYQQKPGQPPKLLIYKASTLASGVPSRFSGSGSGAQFTLTISGVQCDDAATYYCQGGFYSGISDYPFGGGTEVEIK | no binding
